Can you tell me GI50 for the items I'm about to list?
# Tested on: MALME-3M melanoma
# assay_comment: NCI tumour cell line growth inhibition, 48 h

Please review the entries below; each comes with its answer.
{"columns": ["compound", "system", "GI50"],
 "data": [
  ["COc1ccc(-c2cnnn2-c2nonc2-n2cccc2)cc1OC", "MALME-3M melanoma", "3860 nM"],
  ["Cc1cn(-c2cccc(NC(=O)c3ccc(C)c(Nc4nccc(-c5cccnc5)n4)c3)c2)cn1", "MALME-3M melanoma", "1510 nM"],
  ["C=C1C(=O)O[C@H]2[C@H]1CC/C(COC(=O)NCc1ccc(Cn3c(=O)sn(CCCCC)c3=O)cc1)=C\\CC[C@@]1(C)O[C@@H]21", "MALME-3M melanoma", "1610 nM"],
  ["O=C1c2cccnc2-c2nc(-c3cccnc3)cc3c2c1nc1ccccc13", "MALME-3M melanoma", "17600 nM"],
  ["Cc1cc(CCl)c(C)cc1CCl", "MALME-3M melanoma", "1960 nM"],
  ["CC(C)(C)NCC(O)COc1c(Br)c(Br)c(Br)c2c1OC(C)(C)C2 (configuration not stated)", "MALME-3M melanoma", "1710 nM"]
]}

Fill blank: measured GI50 of the compound COc1ccc(Nc2nc(Nc3cc(C)[nH]n3)c3cc(OC)c(OC)cc3n2)cc1 is ____.
1650 nM
